testedTarget: T1, human CD137-His6 (Sino Biological #10041-H08H) (human, UniProt Q07011 24-186)
T1 construct: Bought; also called human CD137 protein; not shown: His6 tag
protocolText: SPR Biacore, IgG
reportedProperty: kon (M⁻¹ s⁻¹)
Respond with the bare value in M⁻¹ s⁻¹.

Below, 2 binders whose answers are already recorded.
{"columns": ["binder", "unit", "kon"],
 "data": [
  ["AG10054 (antibody, human IgG4 S228P, kappa, V domains shown, also called IgG of Fab 4072) VH: EVQLVESGGGLVQPGGSLRLSCAASGFSLSTSGVAVSWIRQAPGKGLEWIGIINPNFGDTNYAQKFQGRVTISRDNSKNTLYLQLNSLRAEDTAVYYCARDEYYGGSYYFDYWGQGTLVTVSS VL: DIQLTQSPSSLSASVGDRVTITCRASQDVRTAVAWYQQKPGKAPKLLIYDASNLETGVPSRFSGSGSGTDFTLTISSLQPEDFATYYCQQSYDWPPTFGQGTKVEIKR", "M⁻¹ s⁻¹", 140000],
  ["AG10060 (antibody, human IgG4 S228P, kappa, V domains shown, also called IgG of Fab 5359) VH: EVQLVESGGGLVQPGGSLRLSCAASGFSLSTSGVGVGWIRQAPGKGLEWLALIDWADDKYYSPSLKSRLTISRDNSKNTLYLQLNSLRAEDTAVYYCARGGSDAVLGDWFAYWGQGTLVTVSS VL: DIQLTQSPSSLSASVGDRVTITCRASQGIGSYLAWYQQKPGKAPKLLIYDASNLETGVPSRFSGSGSGTDFTLTISSLQPEDFATYYCQQGYSIWTFGQGTKVEIKR", "M⁻¹ s⁻¹", 220000]
]}

# next binder below
Incoming: // returns reported kon for input AG10061 (antibody, human IgG4 S228P, kappa, V domains shown) VH: EVQLVESGGGLVQPGGSLRLSCAASGFSLSTSGVAVAWIRQAPGKGLEWLALIDWDDDKRYSTSLKSRLTISRDNSKNTLYLQLNSLRAEDTAVYYCAREGSTTVVGDWFDYWGQGTLVTVSS VL: DIQLTQSPSSLSASVGDRVTITCRASQGIGTYLAWYQQKPGKAPKLLIYDASNRATGIPSRFSGSGSGTDFTLTISSLQPEDFATYYCQQGYSLWTFGQGTKVEIKR
Outgoing: 220000
